Measured values drawn from the NIST ThermoML archive (doi:10.1021/je501162f) for this set.

run-parameters: 333.15 K; Liquid; Pendant drop shape
property-measured: surface tension liquid-gas (mN/m)
# value in mN/m; strip the unit string

Name the recorded surface tension liquid-gas for CCCCCCCC[n+]1ccn(C)c1.C[C@H](N)C(=O)[O-] [1-methyl-3-octylimidazolium L-alaninate] .
26.11

Name the recorded surface tension liquid-gas for CCCCCCCCn1cc[n+](C)c1.O=C([O-])[C@@H]1CCCN1 [1-methyl-3-octyl-1H-imidazol-3-ium L-prolinate] .
27.76

Name the recorded surface tension liquid-gas for CCCCCCCCn1cc[n+](C)c1.NCC(=O)[O-] [1-methyl-3-octylimidazolium glycinate] .
30.07

Name the recorded surface tension liquid-gas for CCCCCCCC[n+]1ccn(C)c1.NC(=O)C[C@H](N)C(=O)[O-] [1-methyl-3-octylimidazolium L-asparaginate] .
31.73

Name the recorded surface tension liquid-gas for CCCCCCCC[n+]1ccn(C)c1.N[C@@H](CO)C(=O)[O-] [1-methyl-3-octyl-1H-imidazol-3-ium L-serinate] .
31

---

run-parameters: 323.15 K; 101.33 kPa; Liquid; Vibrating tube method
property-measured: mass density (kg/m3)
# value in kg/m3; strip the unit string

Name the recorded mass density for CCCCCCCCn1cc[n+](C)c1.NCC(=O)[O-] [1-methyl-3-octylimidazolium glycinate] .
1023

Name the recorded mass density for CCCCCCCCn1cc[n+](C)c1.O=C([O-])[C@@H]1CCCN1 [1-methyl-3-octyl-1H-imidazol-3-ium L-prolinate] .
1045.5

Name the recorded mass density for CCCCCCCC[n+]1ccn(C)c1.N[C@@H](CO)C(=O)[O-] [1-methyl-3-octyl-1H-imidazol-3-ium L-serinate] .
1056.1

Name the recorded mass density for CCCCCCCC[n+]1ccn(C)c1.C[C@H](N)C(=O)[O-] [1-methyl-3-octylimidazolium L-alaninate] .
975.8

Name the recorded mass density for CCCCCCCC[n+]1ccn(C)c1.NC(=O)C[C@H](N)C(=O)[O-] [1-methyl-3-octylimidazolium L-asparaginate] .
1052.2

---

run-parameters: 353.15 K; Liquid; Pendant drop shape
± gives the expanded uncertainty stated by the source.
I'd be grateful if you could share measured surface tension liquid-gas for these entries.

Name the recorded surface tension liquid-gas for CCCCCCCC[n+]1ccn(C)c1.NC(=O)C[C@H](N)C(=O)[O-] [1-methyl-3-octylimidazolium L-asparaginate] .
30.19 ± 0.65 mN/m

Name the recorded surface tension liquid-gas for CCCCCCCC[n+]1ccn(C)c1.N[C@@H](CO)C(=O)[O-] [1-methyl-3-octyl-1H-imidazol-3-ium L-serinate] .
29.23 ± 0.64 mN/m

Name the recorded surface tension liquid-gas for CCCCCCCCn1cc[n+](C)c1.NCC(=O)[O-] [1-methyl-3-octylimidazolium glycinate] .
27.42 ± 0.63 mN/m

Name the recorded surface tension liquid-gas for CCCCCCCCn1cc[n+](C)c1.O=C([O-])[C@@H]1CCCN1 [1-methyl-3-octyl-1H-imidazol-3-ium L-prolinate] .
27.14 ± 0.63 mN/m

Name the recorded surface tension liquid-gas for CCCCCCCC[n+]1ccn(C)c1.C[C@H](N)C(=O)[O-] [1-methyl-3-octylimidazolium L-alaninate] .
24.99 ± 0.61 mN/m

---

run-parameters: Glass; DTA
property-measured: Glass transition temperature (°C)
# value in °C; strip the unit string

Name the recorded Glass transition temperature for CCCCCCCCn1cc[n+](C)c1.NCC(=O)[O-] [1-methyl-3-octylimidazolium glycinate] .
-69

Name the recorded Glass transition temperature for CCCCCCCCn1cc[n+](C)c1.O=C([O-])[C@@H]1CCCN1 [1-methyl-3-octyl-1H-imidazol-3-ium L-prolinate] .
-62

Name the recorded Glass transition temperature for CCCCCCCC[n+]1ccn(C)c1.N[C@@H](CO)C(=O)[O-] [1-methyl-3-octyl-1H-imidazol-3-ium L-serinate] .
-54

Name the recorded Glass transition temperature for CCCCCCCC[n+]1ccn(C)c1.NC(=O)C[C@H](N)C(=O)[O-] [1-methyl-3-octylimidazolium L-asparaginate] .
-44

Name the recorded Glass transition temperature for CCCCCCCC[n+]1ccn(C)c1.C[C@H](N)C(=O)[O-] [1-methyl-3-octylimidazolium L-alaninate] .
-66
